Biological target: Ecm22 (UniProt Q05958)
Sequence: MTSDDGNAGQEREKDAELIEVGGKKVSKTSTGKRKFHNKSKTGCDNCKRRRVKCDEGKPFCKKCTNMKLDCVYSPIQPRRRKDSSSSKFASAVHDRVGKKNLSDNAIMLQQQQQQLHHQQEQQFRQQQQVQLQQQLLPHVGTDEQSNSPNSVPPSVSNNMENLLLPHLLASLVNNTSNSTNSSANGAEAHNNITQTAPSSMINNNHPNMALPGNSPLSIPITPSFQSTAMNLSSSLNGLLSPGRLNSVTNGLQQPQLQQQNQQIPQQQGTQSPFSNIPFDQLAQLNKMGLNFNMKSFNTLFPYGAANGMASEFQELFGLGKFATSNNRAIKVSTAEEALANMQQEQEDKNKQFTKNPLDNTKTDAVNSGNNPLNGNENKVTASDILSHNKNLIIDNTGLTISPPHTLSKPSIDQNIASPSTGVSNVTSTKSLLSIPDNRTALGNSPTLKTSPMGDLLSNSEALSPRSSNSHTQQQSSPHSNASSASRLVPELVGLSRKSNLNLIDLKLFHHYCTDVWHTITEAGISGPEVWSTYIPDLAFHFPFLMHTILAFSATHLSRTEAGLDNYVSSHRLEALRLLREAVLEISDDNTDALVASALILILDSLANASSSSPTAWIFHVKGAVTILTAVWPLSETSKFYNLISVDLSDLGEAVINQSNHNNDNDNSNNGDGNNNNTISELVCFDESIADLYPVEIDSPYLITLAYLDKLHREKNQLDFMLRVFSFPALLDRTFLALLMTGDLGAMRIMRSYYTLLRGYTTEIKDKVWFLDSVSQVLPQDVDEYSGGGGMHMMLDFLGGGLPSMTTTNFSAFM
Experiment: PBM E-score (8-mer binding enrichment) (E-score (-0.5 to 0.5)); higher = stronger / more preferred TF binding
Details: protein concentration: 200 nM; construct: GST-full length
The full ranking holds about 33,000 sequences; the median of “E-score (-0.5 to 0.5)” is about -0.041, and the highest 2% start at about 0.37. The full list was thinned out, with the highest values kept by preference.
test-readout: PBM E-score

// known answers, use as guide
INSERT INTO measurements (monomer_sequence, observed_result) VALUES
  ('ATAGGATC', -0.135),
  ('GGTTCGAC', 0.0422),
  ('CTAGGAAA', -0.209),
  ('AGACGGCG', -0.0146),
  ('TAACGTGA', -0.142),
  ('GGTCGTCA', 0.0226),
  ('CAACGAGA', 0.378),
  ('AAGAGTAG', -0.211),
  ('TGTCGTAA', 0.428),
  ('AGTATAGA', 0.16);

Consider `AGTATAGC` . Its measured PBM E-score is 0.0261

The sequence listed as `GACCCGTA` has a reported PBM E-score of 0.24

The sequence listed as `AAACGGGT` shows PBM E-score equal to 0.319

Lab note: `CGTCGTCA` gave PBM E-score of 0.0778

Reported PBM E-score ( `CTTGCCGA` ) = -0.0634

Consider `GCAGGGGC` . Its measured PBM E-score is -0.243

The sequence identified as `ACGGAGCC` registered its PBM E-score at -0.084

# sequence `GCCCGCAC` ; its PBM E-score = -0.0245
